- Assay method text: Inhibition of porcine brain tubulin polymerization assessed as reduction in incorporation of fluorescent reporter by fluorescence based assay
- Design: species or system Sus scrofa
Quantity measured: IC50 (µM)
I only need the number, in µM, no unit after it.

>>> measured("COc1cc(/C=C/C(=O)/C=C/c2c[nH]c3ccccc23)cc(OC)c1OC")
8.81

Here is another compound to look at.
Ask: Fill in: IC50 of COc1ccc(OC)c(/C=C/C(=O)/C=C/c2c[nH]c3ccccc23)c1 is ___
Reply: 10.2

* * *

- Test system: PC-3
- Assay method text: Potency index, ratio of curcumin IC50 to compound IC50 for human PC3 cells
- Type: functional
Quantity measured: Ratio IC50
// keep it numeric: no unit symbol after the value

The cases that follow already have their Ratio IC50 on record.
>>> measured("COc1cc(OC)c(/C=C/C(=O)/C=C/c2c[nH]c3ccccc23)c(OC)c1")
3.9
>>> measured("COc1cc(/C=C/C(=O)/C=C/c2c[nH]c3ccccc23)cc(OC)c1OC")
3.9
>>> measured("COc1ccc(/C=C/C(=O)/C=C/c2c[nH]c3ccccc23)cc1OC")
2.2

Here is another compound to look at.
Ask: Fill in: Ratio IC50 of COc1ccc(OC)c(/C=C/C(=O)/C=C/c2c[nH]c3ccccc23)c1 is ___
Reply: 1.9

* * *

# Ratio IC50 per entry
- Test system: MDA-MB-231
- Assay method text: Potency index, ratio of curcumin IC50 to compound IC50 for human MDA-MB-231 cells
- Format: functional
// keep it numeric: no unit symbol after the value

Ask: Fill in: Ratio IC50 of COc1cc(OC)c(/C=C/C(=O)/C=C/c2c[nH]c3ccccc23)c(OC)c1 is ___
Reply: 0.3

Ask: Next: COc1ccc(/C=C/C(=O)/C=C/c2c[nH]c3ccccc23)cc1OC
Reply: 1

Ask: Next: COc1cc(/C=C/C(=O)/C=C/c2c[nH]c3ccccc23)cc(OC)c1OC
Reply: 1.4

Ask: Next: COc1ccc(OC)c(/C=C/C(=O)/C=C/c2c[nH]c3ccccc23)c1
Reply: 2.6

* * *

# pIC50 per entry
- Test system: RWPE-1
- Assay method text: Antiproliferative activity against human RWPE1 cells after 48 hrs by MTT assay
- Format: cell-based
- Condition context: RWPE-1, 48 h
// scale note: pIC50 = -log10(conc_M); give the bare number

>>> measured("COc1cc(/C=C/C(=O)/C=C/c2c[nH]c3ccccc23)cc(OC)c1OC")
5.19

Ask: Fill in: pIC50 of COc1ccc(OC)c(/C=C/C(=O)/C=C/c2c[nH]c3ccccc23)c1 is ___
Reply: 4.73
